The measured values listed here are drawn from the supplement of paper PMC10567573.

B1: SCNN1D (parent)
chain: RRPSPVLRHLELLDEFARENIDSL

- Variants of: B1
- assay: protein stability index of a GFP-peptide fusion (GPS, HEK-293T) (PSI 1-6); higher = more stable;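 further: lentivirally expressed fusions sorted by FACS into six bins by GFP to DsRed ratio, PSI derived from sequencing read proportions per bin multiplied by bin number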
- run-parameters: c terminus: a fixed tail appended
The label depends only on protein stability index: met if it is at least 3, not met if it is smaller.

mutation-string: R2N
assigned-label: met
//
mutation-string: E11C
assigned-label: not met
//
mutation-string: L7S
assigned-label: met
//
mutation-string: F16M
assigned-label: not met
//
mutation-string: H9S
assigned-label: met
//
mutation-string: P5S
assigned-label: not met
//
mutation-string: F16D
assigned-label: met
//
mutation-string: H9L
assigned-label: not met
//
mutation-string: E19Q
assigned-label: not met
//
mutation-string: P5C
assigned-label: not met
//
mutation-string: H9Q
assigned-label: met
//
mutation-string: D14V
assigned-label: not met
//
mutation-string: E19N
assigned-label: not met
//
mutation-string: S23Q
assigned-label: not met
//
mutation-string: L7C
assigned-label: met
//
mutation-string: D22F
assigned-label: not met
//
mutation-string: E11A
assigned-label: met
//
mutation-string: R18D
assigned-label: met
//
mutation-string: E11G
assigned-label: met
//
mutation-string: R2L
assigned-label: not met
//
mutation-string: L12F
assigned-label: not met
//
mutation-string: R2A
assigned-label: met
//
mutation-string: A17D
assigned-label: met
//
mutation-string: F16P
assigned-label: met
//
mutation-string: E11F
assigned-label: not met
//
mutation-string: D14F
assigned-label: not met
//
mutation-string: S23T
assigned-label: not met
//
mutation-string: S23H
assigned-label: not met
//
mutation-string: D14M
assigned-label: not met
//
mutation-string: S23K
assigned-label: met
//
mutation-string: A17C
assigned-label: met
//
mutation-string: L7T
assigned-label: met
//
mutation-string: R8C
assigned-label: not met
//
mutation-string: F16Q
assigned-label: met
//
mutation-string: L10H
assigned-label: met
//
mutation-string: S23W
assigned-label: not met
//
mutation-string: R8L
assigned-label: not met
//
mutation-string: F16L
assigned-label: met
//
mutation-string: N20R
assigned-label: not met
//
mutation-string: F16K
assigned-label: met
//
mutation-string: R1W
assigned-label: not met
//
mutation-string: I21G
assigned-label: met
//
mutation-string: D14S
assigned-label: not met
//
mutation-string: H9F
assigned-label: not met
//
mutation-string: D14H
assigned-label: not met
//
mutation-string: N20H
assigned-label: not met
//
mutation-string: L24Q
assigned-label: met
//
mutation-string: L24M
assigned-label: not met
//
mutation-string: S23M
assigned-label: not met
//
mutation-string: E11T
assigned-label: not met
//
mutation-string: R1S
assigned-label: not met
//
mutation-string: L7H
assigned-label: met
//
mutation-string: N20F
assigned-label: not met
//
mutation-string: D22P
assigned-label: not met
//
mutation-string: R8M
assigned-label: met
//
mutation-string: R1L
assigned-label: not met
//
mutation-string: V6P
assigned-label: met
//
mutation-string: V6N
assigned-label: met
//
mutation-string: P3G
assigned-label: not met
//
mutation-string: E19P
assigned-label: not met
//
mutation-string: I21V
assigned-label: not met
//
mutation-string: P3C
assigned-label: not met
//
mutation-string: L24A
assigned-label: met
//
mutation-string: R2H
assigned-label: not met
//
mutation-string: L24P
assigned-label: met
//
mutation-string: L12V
assigned-label: met
//
mutation-string: S4F
assigned-label: not met
//
mutation-string: R2S
assigned-label: met
//
mutation-string: P3W
assigned-label: not met
//
mutation-string: N20A
assigned-label: not met
//
mutation-string: F16C
assigned-label: met
//
mutation-string: E15S
assigned-label: met
//
mutation-string: L12I
assigned-label: met
//
mutation-string: L7K
assigned-label: met
//
mutation-string: R8Y
assigned-label: not met
//
mutation-string: H9M
assigned-label: not met
//
mutation-string: V6I
assigned-label: not met
